Every entry's value here was drawn from the supplement of paper PMC10567573.

B1: CD69 (parent)
chain: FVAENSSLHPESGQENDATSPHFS

# Variants of: B1
# procedure summary: protein stability index of a GFP-peptide fusion (GPS, HEK-293T) (PSI 1-6); higher = more stable;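 also: lentivirally expressed fusions sorted by FACS into six bins by GFP to DsRed ratio, PSI derived from sequencing read proportions per bin multiplied by bin number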
# settings: c terminus: a fixed tail appended
property measured: protein stability index
Give bare numbers.

Answer for every listed entry: what is its protein stability index? The entries follow.
1. FVAENFSLHPESGQENDATSPHFS
2. FVAENSSLHPCSGQENDATSPHFS
3. FVAENKSLHPESGQENDATSPHFS
4. FVAENSSLHSESGQENDATSPHFS
5. FVAENSSLHPESGQENDATSVHFS
6. FVAENSSCHPESGQENDATSPHFS
7. FVAENSSLHPEQGQENDATSPHFS
8. FVAENSSLHPESGQSNDATSPHFS

1: 2.21; 2: 1.96; 3: 2.72; 4: 2.52; 5: 2.52; 6: 2.8; 7: 2.88; 8: 2.11
